Tested on: OVMIU (Ovarian Carcinoma);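 note: after 72 h of two-drug dosing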
Assay: Bliss excess, mean over the matrix (fraction); higher = more synergy
Values of Bliss excess greater than or equal to -0.02 map to Yes; values below map to No.

molecule="COc1nnc2ccc(N3CCC(c4ccc(OCCN5CCN(C)C(=O)[C@H]5C)cc4)CC3)nn12 [AZD5153] + C[C@@H]1COCCN1C2=NC(=NC(=C2)C3(CC3)[S@](=N)(=O)C)C4=C5C=CNC5=NC=C4 [AZD6738] (first compound max 1 µM, 7x7, partner max 10 µM)" assigned_label=No

Input line: # check: Bliss excess of CC1(C)CCC(CN2CCN(c3ccc(C(=O)NS(=O)(=O)c4ccc(NCC5CCOCC5)c([N+](=O)[O-])c4)c(Oc4cnc5[nH]ccc5c4)c3)CC2)=C(c2ccc(Cl)cc2)C1 [Venetoclax] + C1CN(CCC1(C(=O)N[C@@H](CCO)C2=CC=C(C=C2)Cl)N)C3=NC=NC4=C3C=CN4 [Capivasertib] (first compound max 1 µM, 7x7, partner max 3 µM) is greater than or equal to -0.02
Output line: No

Input line: # check: Bliss excess of CCc1c2c(nc3ccc(O)cc13)-c1cc3c(c(=O)n1C2)COC(=O)[C@]3(O)CC [SN-38] + O=C(c1cc(Cc2n[nH]c(=O)c3ccccc23)ccc1F)N1CCN(C(=O)C2CC2)CC1 [Olaparib] (first compound max 0.3 µM, 7x7, partner max 10 µM) is greater than or equal to -0.02
Output line: Yes

Input line: # check: Bliss excess of CN(CCO)CC[C@H](CSc1ccccc1)Nc1ccc(S(=O)(=O)NC(=O)c2ccc(N3CCC([C@@H](O)c4ccccc4-c4ccc(Cl)cc4)CC3)cc2)cc1S(=O)(=O)C(F)(F)F [AZD4320] + Cn1cnc2c(F)c(Nc3ccc(Br)cc3Cl)c(C(=O)NOCCO)cc21 [Selumetinib] (first compound max 1 µM, 7x7, partner max 3 µM) is greater than or equal to -0.02
Output line: No

Input line: # check: Bliss excess of CN(CCO)CC[C@H](CSc1ccccc1)Nc1ccc(S(=O)(=O)NC(=O)c2ccc(N3CCC([C@@H](O)c4ccccc4-c4ccc(Cl)cc4)CC3)cc2)cc1S(=O)(=O)C(F)(F)F [AZD4320] + Nc1ccn([C@@H]2O[C@H](CO)[C@@H](O)C2(F)F)c(=O)n1 [Gemcitabine] (first compound max 1 µM, 7x7, partner max 0.3 µM) is greater than or equal to -0.02
Output line: Yes

Input line: # check: Bliss excess of COc1cccc2c1C(=O)c1c(O)c3c(c(O)c1C2=O)C[C@@](O)(C(=O)CO)C[C@@H]3O[C@H]1C[C@H](N)[C@H](O)[C@H](C)O1 [Doxorubicin] + Cc1cc2ncnn2cc1Nc1ncc2c(n1)n(C1CCOCC1)c(=O)n2C [AZD7648] (first compound max 1 µM, 7x7, partner max 10 µM) is greater than or equal to -0.02
Output line: Yes

Input line: # check: Bliss excess of CC1(C)CCC(CN2CCN(c3ccc(C(=O)NS(=O)(=O)c4ccc(NCC5CCOCC5)c([N+](=O)[O-])c4)c(Oc4cnc5[nH]ccc5c4)c3)CC2)=C(c2ccc(Cl)cc2)C1 [Venetoclax] + C=CCn1c(=O)c2cnc(Nc3ccc(N4CCN(C)CC4)cc3)nc2n1-c1cccc(C(C)(C)O)n1 [AZD1775] (first compound max 1 µM, partner max 1 µM) is greater than or equal to -0.02
Output line: Yes

Input line: # check: Bliss excess of CCN(CCO)CCCOc1ccc2c(Nc3cc(CC(=O)Nc4cccc(F)c4)[nH]n3)ncnc2c1 [AZD2811] + C[C@@H]1COCCN1C2=NC(=NC(=C2)C3(CC3)[S@](=N)(=O)C)C4=C5C=CNC5=NC=C4 [AZD6738] (first compound max 1 µM, 7x7, partner max 10 µM) is greater than or equal to -0.02
Output line: No

Input line: # check: Bliss excess of Cc1c2c(nn1C)CSCc1cc(n(C)n1)CSc1cc(c3ccccc3c1)OCCCc1c(C(=O)O)n(C)c3c-2c(Cl)ccc13 [AZD5991] + Nc1ccn([C@@H]2O[C@H](CO)[C@@H](O)C2(F)F)c(=O)n1 [Gemcitabine] (first compound max 1 µM, 7x7, partner max 0.3 µM) is greater than or equal to -0.02
Output line: No
